# PROCEDURE_DETAILS: TA1-1B in plasma, brain and tumor of HCT116 tumor-bearing mice
# Type: in vivo
# ASSAY_SETUP: female, NCr nu/nu, mouse, plasma, 25.0 mg/kg single IV dose, two hour post-dose, read-out: Concentration in plasma

COMPOUND	OUTPUT_UNIT	concentration at 2 h
CN1CCC[C@H]1CCNC(=O)c1cn2c3c(c(N4CCC(c5cnccn5)C4)c(F)cc3c1=O)Oc1cc3ccccc3cc1-2 (stereo partly shown) [TA1-1B]	nM	410

====

# PROCEDURE_DETAILS: TA1-1B in plasma, brain and tumor of HCT116 tumor-bearing mice
# Format: in vivo
# ASSAY_SETUP: female, NCr nu/nu, mouse, tumor, 25.0 mg/kg single IV dose, two hour post-dose, read-out: Concentration in tumor

COMPOUND	OUTPUT_UNIT	concentration at 2 h
CN1CCC[C@H]1CCNC(=O)c1cn2c3c(c(N4CCC(c5cnccn5)C4)c(F)cc3c1=O)Oc1cc3ccccc3cc1-2 (stereo partly shown)	nM	1600

====

# Tested on: OVCAR-4
# PROCEDURE_DETAILS: Inhibition of cell proliferation (MTT)
# Format: cell-based
# ASSAY_SETUP: Homo sapiens; OVCAR-4, Ovarian; 48 hours
pEC50: −log10 of the molar value.
VALUE_TYPE: pEC50

COMPOUND	ASSAY_VALUE
CN1CCC[C@H]1CCNC(=O)c1cn2c3c(c(N4CCC(c5cnccn5)C4)c(F)cc3c1=O)Oc1cc3ccccc3cc1-2 (stereo partly shown) [TA1-1B]	5.53

====

# PROCEDURE_DETAILS: TA4-1A in brain compared to plasma in rats
# Assay type: in vivo
# ASSAY_SETUP: both sexes, rat, female and male rats, eight hour exposure, read-out: Agent available in the brain as compared to the amount in plasma

MOLECULE	Kp at 8 h
CC(=O)N1CCN(c2nc3c(cc2F)c(=O)c(C(=O)NCCN2CCCC2)c2n(C)c4ccccc4n32)CC1 [TA4-1A]	0.03 to 0.04

====

# Test system: D1-1
# PROCEDURE_DETAILS: Inhibition of cell proliferation (MTT)
# Assay type: cell-based
# ASSAY_SETUP: Homo sapiens; D1-1, Leukemia; 48 hours

MOLECULE	MEASURED_TARGET	OUTPUT_UNIT	EC50
CN1CCC[C@H]1CCNC(=O)c1cn2c3c(c(N4CCC(c5cnccn5)C4)c(F)cc3c1=O)Oc1cc3ccccc3cc1-2 (stereo partly shown) [TA1-1B]	D1-1	µM	4.16

====

# MEASURED_TARGET: CCK2/CCKB (Homo sapiens)
# Sequence (P32239 whole entry): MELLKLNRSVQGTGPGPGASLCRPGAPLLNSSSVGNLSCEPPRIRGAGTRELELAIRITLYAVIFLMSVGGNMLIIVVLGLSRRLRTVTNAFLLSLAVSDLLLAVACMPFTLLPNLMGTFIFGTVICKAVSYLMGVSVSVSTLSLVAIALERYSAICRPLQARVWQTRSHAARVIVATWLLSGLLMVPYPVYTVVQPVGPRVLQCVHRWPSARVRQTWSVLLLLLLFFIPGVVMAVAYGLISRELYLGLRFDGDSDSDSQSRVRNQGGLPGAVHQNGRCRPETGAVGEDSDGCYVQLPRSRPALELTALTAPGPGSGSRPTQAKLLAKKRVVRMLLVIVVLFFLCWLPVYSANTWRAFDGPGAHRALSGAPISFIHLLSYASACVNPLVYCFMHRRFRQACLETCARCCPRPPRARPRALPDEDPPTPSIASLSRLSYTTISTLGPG
# PROCEDURE_DETAILS: Receptor functional assay
# ASSAY_SETUP: antagonist
# Method: The binding IC50, functional effect, and functional EC50 of TA1-1B on exemplary receptors was determined.
pEC50: −log10 of the molar value.

MOLECULE	pEC50
CN1CCC[C@H]1CCNC(=O)c1cn2c3c(c(N4CCC(c5cnccn5)C4)c(F)cc3c1=O)Oc1cc3ccccc3cc1-2 (stereo partly shown)	5.05

====

# Tested on: Kasumi-1
# PROCEDURE_DETAILS: Inhibition of cell proliferation (MTT)
# Format: cell-based
# ASSAY_SETUP: Homo sapiens; Kasumi-1, Leukemia; 48 hours

COMPOUND	MEASURED_TARGET	EC50 [nM]
CN1CCC[C@H]1CCNC(=O)c1cn2c3c(c(N4CCC(c5cnccn5)C4)c(F)cc3c1=O)Oc1cc3ccccc3cc1-2 (stereo partly shown)	Kasumi-1	2050

====

# Test system: JM1
# PROCEDURE_DETAILS: Inhibition of cell proliferation (MTT)
# Assay type: cell-based
# ASSAY_SETUP: Homo sapiens; JM1, Lymphoma; 48 hours

COMPOUND	MEASURED_TARGET	OUTPUT_UNIT	EC50
CN1CCC[C@H]1CCNC(=O)c1cn2c3c(c(N4CCC(c5cnccn5)C4)c(F)cc3c1=O)Oc1cc3ccccc3cc1-2 (stereo partly shown)	JM1	nM	2230

====

# System: TK-10
# PROCEDURE_DETAILS: Inhibition of cell proliferation (MTT)
# Type: cell-based
# ASSAY_SETUP: Homo sapiens; TK-10, Renal; 48 hours
pEC50: −log10 of the molar value.
VALUE_TYPE: pEC50

MOLECULE	ASSAY_VALUE
CN1CCC[C@H]1CCNC(=O)c1cn2c3c(c(N4CCC(c5cnccn5)C4)c(F)cc3c1=O)Oc1cc3ccccc3cc1-2 (stereo partly shown) [TA1-1B]	5.48

====

# System: Ramos
# PROCEDURE_DETAILS: Inhibition of cell proliferation (MTT)
# Format: cell-based
# ASSAY_SETUP: Homo sapiens, Lymphoma, 48 hours

COMPOUND	MEASURED_TARGET	EC50
CN1CCC[C@H]1CCNC(=O)c1cn2c3c(c(N4CCC(c5cnccn5)C4)c(F)cc3c1=O)Oc1cc3ccccc3cc1-2 (stereo partly shown)	Ramos	1330 nM

====

# System: HCC-2998
# PROCEDURE_DETAILS: Inhibition of cell proliferation (MTT)
# Assay type: cell-based
# ASSAY_SETUP: Homo sapiens; HCC-2998, Colon; 48 hours
pEC50: −log10 of the molar value.
VALUE_TYPE: pEC50

MOLECULE	ASSAY_VALUE
CN1CCC[C@H]1CCNC(=O)c1cn2c3c(c(N4CCC(c5cnccn5)C4)c(F)cc3c1=O)Oc1cc3ccccc3cc1-2 (stereo partly shown)	5.59

====

# MEASURED_TARGET: SST1 (Homo sapiens)
# Sequence (P30872 whole entry, species assumed): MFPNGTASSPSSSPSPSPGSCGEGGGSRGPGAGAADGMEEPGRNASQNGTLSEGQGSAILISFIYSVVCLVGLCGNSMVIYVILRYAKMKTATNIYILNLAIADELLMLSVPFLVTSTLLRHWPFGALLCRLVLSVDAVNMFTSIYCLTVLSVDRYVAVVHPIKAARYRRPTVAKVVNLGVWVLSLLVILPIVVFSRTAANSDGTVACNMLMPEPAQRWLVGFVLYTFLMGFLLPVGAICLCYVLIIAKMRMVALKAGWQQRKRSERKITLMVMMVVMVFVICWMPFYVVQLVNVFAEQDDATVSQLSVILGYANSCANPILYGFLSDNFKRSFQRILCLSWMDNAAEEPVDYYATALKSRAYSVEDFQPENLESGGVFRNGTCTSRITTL
# PROCEDURE_DETAILS: Receptor functional assay
# ASSAY_SETUP: agonist

MOLECULE	EC50 (µM)
CN1CCC[C@H]1CCNC(=O)c1cn2c3c(c(N4CCC(c5cnccn5)C4)c(F)cc3c1=O)Oc1cc3ccccc3cc1-2 (stereo partly shown)	4.3

====

# Test system: PC-3
# PROCEDURE_DETAILS: Inhibition of cell proliferation (MTT)
# Format: cell-based
# ASSAY_SETUP: Homo sapiens; PC-3, Prostate; 48 hours
VALUE_TYPE: EC50 (µM)

MOLECULE	ASSAY_VALUE
CN1CCC[C@H]1CCNC(=O)c1cn2c3c(c(N4CCC(c5cnccn5)C4)c(F)cc3c1=O)Oc1cc3ccccc3cc1-2 (stereo partly shown)	4.96

====

# System: NCI-H460
# PROCEDURE_DETAILS: Inhibition of cell proliferation (MTT)
# Format: cell-based
# ASSAY_SETUP: Homo sapiens; NCI-H460, Non Small Cell Lung; 48 hours

MOLECULE	OUTPUT_UNIT	EC50
CN1CCC[C@H]1CCNC(=O)c1cn2c3c(c(N4CCC(c5cnccn5)C4)c(F)cc3c1=O)Oc1cc3ccccc3cc1-2 (stereo partly shown)	µM	4.01

====

# Tested on: MALME-3M
# PROCEDURE_DETAILS: Inhibition of cell proliferation (MTT)
# Assay type: cell-based
# ASSAY_SETUP: Homo sapiens, Melanoma, 48 hours
# Experimental: Inhibition of cell proliferation is determined in human tumor cell lines. Innoculation density and doubling times for specific cell lines are listed at World Wide Web URL “dtp.nci.nih.gov/docs/misc/common_files/cell_list.html.” • 1. Plate adherent cells the day before starting the experiment in 180 μl growth media (see list hereafter). • 2. Day of experiment, count and plate suspension cells in 180 μl growth media (see list on next page). • 3. […]
pEC50: −log10 of the molar value.
VALUE_TYPE: pEC50

COMPOUND	VALUE_TYPE	ASSAY_VALUE
CN1CCC[C@H]1CCNC(=O)c1cn2c3c(c(N4CCC(c5cnccn5)C4)c(F)cc3c1=O)Oc1cc3ccccc3cc1-2 (stereo partly shown)	pEC50	5.29

src = patent US20080318938A1
